Kindly supply the reported IC50 values for the records listed here.
test system: A549; assay: Antiproliferative activity against human A549 cells assessed as inhibition of cell growth incubated for 48 hrs by MTT assay; assay type: functional, cell-based; conditions: A549, 48 h
Answers are plain numbers, in µM.

Here are 3 molecules together with their reported answers.
{"smiles-code": "CC(C)(C)c1ccc(S(=O)(=O)N2C[C@@H]3CCCN4CCC[C@@H]([C@H]34)[C@H]2CCCc2nc3cc(Cl)ccc3n2S(=O)(=O)c2ccc(C(C)(C)C)cc2)cc1", "unit-label": "µM", "measured": 77.5}
{"smiles-code": "O=C(OCC1c2ccccc2-c2ccccc21)N1C[C@@H]2CCCN3CCC[C@@H]([C@H]23)[C@H]1CCCc1nc2ccc(C(F)(F)F)cc2[nH]1", "unit-label": "µM", "measured": 33.6}
{"smiles-code": "Cn1c(CCCNC(=O)CCC[C@@H]2[C@H]3CCCN4CCC[C@@H](CN2C(=O)OCC2c5ccccc5-c5ccccc52)[C@@H]34)nc2ccc([N+](=O)[O-])cc21", "unit-label": "µM", "measured": 20.6}

Would you be so kind as to report IC50 for each listed record?
1. O=S(=O)(c1cccc2ccccc12)N1C[C@@H]2CCCN3CCC[C@@H]([C@H]23)[C@H]1CCCc1nc2ccc(F)cc2n1S(=O)(=O)c1cccc2ccccc12
2. O=S(=O)(c1ccc(Br)cc1)N1C[C@@H]2CCCN3CCC[C@@H]([C@H]23)[C@H]1CCCc1nc2cc(Cl)ccc2n1S(=O)(=O)c1ccc(Br)cc1
3. O=S(=O)(c1cccc2ccccc12)N1C[C@@H]2CCCN3CCC[C@@H]([C@H]23)[C@H]1CCCc1nc2cc(F)ccc2n1S(=O)(=O)c1cccc2ccccc12
4. Cn1c(CCC[C@@H]2[C@H]3CCCN4CCC[C@@H](CN2C(=O)OCC2c5ccccc5-c5ccccc52)[C@@H]34)nc2ccc([N+](=O)[O-])cc21
5. O=C(CCC[C@@H]1[C@H]2CCCN3CCC[C@@H](CN1C(=O)OCC1c4ccccc4-c4ccccc41)[C@@H]23)NCCCc1nc2ccccc2[nH]1
6. O=C(OCC1c2ccccc2-c2ccccc21)N1C[C@@H]2CCCN3CCC[C@@H]([C@H]23)[C@H]1CCCc1nc2cc(Cl)c(Cl)cc2[nH]1
7. Cc1ccc(S(=O)(=O)N2C[C@@H]3CCCN4CCC[C@@H]([C@H]34)[C@H]2CCCc2nc3cc([N+](=O)[O-])ccc3n2S(=O)(=O)c2ccc(C)cc2)cc1
8. Cc1ccc(S(=O)(=O)N2C[C@@H]3CCCN4CCC[C@@H]([C@H]34)[C@H]2CCCc2nc3cc(Br)ccc3n2S(=O)(=O)c2ccc(C)cc2)cc1

A.
62.4
79.9
16.9
31
30.7
13.2
53.2
10.8

* * *

Task for the reader: assign each of the following molecules its reported IC50.
test system: HeLa; assay: Antiproliferative activity against human HeLa cells assessed as inhibition of cell growth incubated for 48 hrs by MTT assay; type: functional, cell-based
Give bare numbers, in µM.

Provide each entry's IC50 from the list below.
1. O=C(CCC[C@@H]1[C@H]2CCCN3CCC[C@@H](CN1C(=O)OCC1c4ccccc4-c4ccccc41)[C@@H]23)Nc1nc2ccccc2[nH]1
2. Cc1ccc(S(=O)(=O)N2C[C@@H]3CCCN4CCC[C@@H]([C@H]34)[C@H]2CCCc2nc3ccc(Br)cc3n2S(=O)(=O)c2ccc(C)cc2)cc1

A.
16.1
8.56

Record CC(C)(C)c1ccc(S(=O)(=O)N2C[C@@H]3CCCN4CCC[C@@H]([C@H]34)[C@H]2CCCc2nc3ccc(Cl)cc3n2S(=O)(=O)c2ccc(C(C)(C)C)cc2)cc1 has HeLa IC50 equal to 78.5

* * *

tested on: HeLa; assay: Antiproliferative activity against human HeLa cells assessed as inhibition of cell growth incubated for 48 hrs by MTT assay; format: functional, cell-based
observed-property: IC50
Form field: result (number plus unit)

{"smiles-code": "CC(C)(C)c1ccc(S(=O)(=O)N2C[C@@H]3CCCN4CCC[C@@H]([C@H]34)[C@H]2CCCc2nc3cc(Cl)ccc3n2S(=O)(=O)c2ccc(C(C)(C)C)cc2)cc1", "tested-system": "HeLa", "IC50": "66.3 µM"}

Hey, can you go through the list below and give me IC50 for every item?
1. O=S(=O)(c1ccc(Br)cc1)N1C[C@@H]2CCCN3CCC[C@@H]([C@H]23)[C@H]1CCCc1nc2ccc(Cl)cc2n1S(=O)(=O)c1ccc(Br)cc1
2. O=C(OCC1c2ccccc2-c2ccccc21)N1C[C@@H]2CCCN3CCC[C@@H]([C@H]23)[C@H]1CCCc1nc2ccc(Cl)cc2[nH]1

A.
["71.2 µM", "20.4 µM"]

* * *

Assay read-out pIC50; system under study: Poly [ADP-ribose] polymerase 1 (Homo sapiens).
Sequence (P09874 whole entry): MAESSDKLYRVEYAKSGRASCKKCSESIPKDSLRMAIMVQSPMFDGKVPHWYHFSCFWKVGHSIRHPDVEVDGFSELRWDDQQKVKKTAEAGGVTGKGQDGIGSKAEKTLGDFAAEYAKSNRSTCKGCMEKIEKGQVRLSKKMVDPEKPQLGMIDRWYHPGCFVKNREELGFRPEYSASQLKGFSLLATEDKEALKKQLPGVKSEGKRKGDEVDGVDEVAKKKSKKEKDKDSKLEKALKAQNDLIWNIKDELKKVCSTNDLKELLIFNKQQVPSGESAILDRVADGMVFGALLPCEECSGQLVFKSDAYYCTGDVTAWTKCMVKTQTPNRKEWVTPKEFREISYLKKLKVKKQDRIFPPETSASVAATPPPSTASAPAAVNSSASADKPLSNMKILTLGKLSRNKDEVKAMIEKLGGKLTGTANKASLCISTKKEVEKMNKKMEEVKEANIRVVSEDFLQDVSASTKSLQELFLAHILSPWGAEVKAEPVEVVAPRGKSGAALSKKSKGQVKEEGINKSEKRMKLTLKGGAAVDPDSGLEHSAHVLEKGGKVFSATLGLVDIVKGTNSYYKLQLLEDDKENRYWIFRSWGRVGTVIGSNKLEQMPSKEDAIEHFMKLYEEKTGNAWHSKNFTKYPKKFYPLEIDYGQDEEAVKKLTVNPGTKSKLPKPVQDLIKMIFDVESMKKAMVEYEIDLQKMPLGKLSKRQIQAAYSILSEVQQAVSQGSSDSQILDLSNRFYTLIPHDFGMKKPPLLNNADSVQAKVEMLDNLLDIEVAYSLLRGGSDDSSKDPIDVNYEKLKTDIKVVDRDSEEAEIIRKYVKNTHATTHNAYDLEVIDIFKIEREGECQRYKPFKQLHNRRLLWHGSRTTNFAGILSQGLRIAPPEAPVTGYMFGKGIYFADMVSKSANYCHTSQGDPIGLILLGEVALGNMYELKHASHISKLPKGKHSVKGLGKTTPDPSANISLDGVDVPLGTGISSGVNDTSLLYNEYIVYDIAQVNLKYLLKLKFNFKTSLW
One number for each entry, as −log10 of the molar value.

{"smiles-code": "O=C(OCC1c2ccccc2-c2ccccc21)N1C[C@@H]2CCCN3CCC[C@@H]([C@H]23)[C@H]1CCCc1nc2cc(Br)c(Br)cc2[nH]1", "pIC50": 7.05}

Switching to the query record.
Tested on Poly [ADP-ribose] polymerase 1 (Homo sapiens), the item Cc1ccc(S(=O)(=O)N2C[C@@H]3CCCN4CCC[C@@H]([C@H]34)[C@H]2CCCc2nc3cc(Br)ccc3n2S(=O)(=O)c2ccc(C)cc2)cc1 showed pIC50 equal to 5.85

* * *

system: A549; experiment: Antiproliferative activity against human A549 cells assessed as inhibition of cell growth incubated for 48 hrs by MTT assay; assay type: functional, cell-based; settings: A549, 48 h
Please provide measured IC50 for the entries that follow.
Numbers only, in µM.

I have 3 compounds here; please give me IC50 for each one.
1. O=C(OCC1c2ccccc2-c2ccccc21)N1C[C@@H]2CCCN3CCC[C@@H]([C@H]23)[C@H]1CCCc1nc2ccc(Cl)cc2[nH]1
2. O=C(OCC1c2ccccc2-c2ccccc21)N1C[C@@H]2CCCN3CCC[C@@H]([C@H]23)[C@H]1CCCc1nc2ccc(C(F)(F)F)cc2n1C(=O)OCC1c2ccccc2-c2ccccc21
3. O=C(OCC1c2ccccc2-c2ccccc21)N1C[C@@H]2CCCN3CCC[C@@H]([C@H]23)[C@H]1CCCc1nc2ccccc2n1C(=O)OCC1c2ccccc2-c2ccccc21

A.
1. 36.3
2. 19
3. 24.1
